# Test system: BAEC aortic endothelial cells
# protocol: Cytostatic assay, BAEC
# Type: cell-based, bovine
# reported-conditions: Bos taurus, Table 3
measured-metric: IC50 (µM)

Sample records with IC50:
# smiles-str, assayed-target, IC50 (µM)
records = [
    ("COC(=O)c1c(N)sc(CCc2cc(OC)ccc2OC)c1C", "BAEC aortic endothelial cells", 52),
    ("CCOC(=O)c1cc(-c2ccccc2OC)sc1N", "BAEC aortic endothelial cells", 31),
    ("COC(=O)c1cc(CCc2ccccc2)sc1N", "BAEC aortic endothelial cells", 26),
]

[P] CCOC(=O)c1c(N)sc(CCc2cc(OC)ccc2OC)c1C(=O)OCC
[Q] COC(=O)c1cc(-c2ccc(OC)cc2)sc1N
Request: Could you please tell me which of these two has the higher IC50: P or Q ? // caller expects the label of the chosen entry
Result: Q

###

# Tested on: Daudi, human B-lymphoma cells
# protocol: Cytostatic assay, Daudi
# Assay type: cell-based
# reported-conditions: Table 2
measured-metric: IC50 (µM)

[1] COC(=O)c1cc(CCc2ccccc2)sc1N [TR575]
[2] COC(=O)c1cc(CCc2ccccc2OC)sc1N [TR567]
Request: Could you please tell me which of these two has the higher IC50: 1 or 2 ? // caller expects the label of the chosen entry
Result: 1

###

# Tested on: HepG2C3A hepatoma cells
# protocol: Cytostatic assay, HepG2C3A
# Type: cell-based
# reported-conditions: Homo sapiens, HepG2/C3A; Table 4
measured-metric: IC50 (µM)

# smiles-str, units-symbol, IC50
measured = [
    ("COc1ccccc1CCc1cc(C#N)c(N)s1", "µM", 7.2),
    ("CCOC(=O)c1cc(CCc2cc(OC)ccc2OC)sc1N", "µM", 1.1),
    ("CCOC(=O)c1c(N)sc(CCc2cc(OC)ccc2OC)c1C(=O)OCC", "µM", 34),
    ("COc1ccc(OC)c(CCc2cc(C#N)c(N)s2)c1", "µM", 0.29),
    ("N#Cc1cc(CCc2ccccc2)sc1N", "µM", 64),
]

[P] CCOC(=O)c1cc(-c2ccccc2OC)sc1N
[Q] COC(=O)c1cc(-c2ccc(OC)cc2)sc1N
[R] CCOC(=O)c1c(N)sc(CCc2ccc(OC)cc2)c1C(=O)OCC
Request: Please list these in order of increasing IC50. Thank you! Output spec: a listing of the labels in the requested order.
Result: P, Q, R
(P: 10 µM, Q: 28 µM, R: 48 µM)

[P] COC(=O)c1cc(CCc2ccsc2)sc1N
[Q] COc1ccc(CCc2cc(C#N)c(N)s2)cc1
Request: Hey, between P and Q which has a smaller measured IC50? // caller expects the label of the chosen entry
Result: P
(P: 8.1 µM, Q: 46 µM)

###

# Test system: C8166 cells
# protocol: Cytostatic assay, C8166
# Format: cell-based
# reported-conditions: Homo sapiens, Table 2
measured-metric: IC50 (µM)

Sample records with IC50:
# smiles-str, IC50 (µM)
rows = [
    ("COC(=O)c1cc(-c2cc(OC)ccc2OC)sc1N", 102),
    ("CCOC(=O)c1cc(-c2ccccc2OC)sc1N", 133),
]

[1] COc1ccc(OC)c(CCc2cc(C#N)c(N)s2)c1
[2] CCOC(=O)c1cc(-c2ccc(OC)cc2)sc1N
[3] COC(=O)c1cc(-c2ccccc2OC)sc1N
Request: Please list these in order of increasing IC50. Thank you! Output spec: a listing of the labels in the requested order.
Result: 1, 2, 3

// data source = patent US9278958B2
